# System: spontaneous locomotion (Swiss-Webster male mice)
# measurement.description: Inhibition of locomotor activity-screen fall-off test
# Assay type: in vivo, mouse (Swiss-Webster male mice)
# recorded.conditions: Mus musculus, ip, 1 h, intraperitoneal, one hour prior to testing, locomotion accumulated for one hour
Give ED50 for every item shown.
Answers are plain numbers, in mg/kg.

smiles_notation=c1ccc(N2CCN(CCCOc3cccc4cnccc34)CC2)cc1 assay_system="spontaneous locomotion (Swiss-Webster male mice)" measured_quantity=ED50 numeric_value=0.29

Batch: ED50 for all items listed.
1. C1=C(c2ccccc2)CCN(CCCOc2cccc3cnccc23)C1
2. Oc1nccc2c(OCCCN3CCN(c4ccccn4)CC3)cccc12

[0.18, 6.1]
